system: Macrophage; assay: Inhibition of LPS-induced NO production in ddY mouse macrophages assessed as nitrite accumulation at 3 uM after 20 hrs by Griess reagent method relative to control
ATTRIBUTE_MEASURED: inhibition at 3 µM (%)
Answers are plain numbers, in %.

Solved entries (count: 4):
# COMPOUND, SCALE_UNIT, inhibition at 3 µM
rows = [
    ("CC(C)[C@@H]1CCC(=O)C2=C1[C@H](O)[C@](C)(O)CC2", "%", 11.8),
    ("C=C(C)[C@@H]1CCC2=CC(=O)C[C@@H](C)[C@]2(C)C1", "%", -6.2),
    ("C=C(C)[C@@H]1CC=C2[C@@H](O)CC[C@@H](C)[C@]2(C)C1", "%", 5.8),
    ("CNC(=N)NCCC[C@H](N)C(=O)O", "%", 2),
]

Dear reader, for each entry below, please note its inhibition at 3 µM.
1. C=C(C)[C@H]1C=C2[C@](C)(CCC[C@@]2(C)O)CC1
2. C[C@@]12CCC(=O)C=C1[C@](C)(O)[C@H](O)CC2
3. COc1cc(O)c2c(=O)cc(-c3ccccc3)oc2c1
4. C=C1CC[C@H]2C(C)(C)CCC[C@]2(C)[C@H]1C/C=C(/C=O)CC=O
5. C[C@@]12CCC(=O)C=C1[C@@](C)(O)[C@H](O)CC2
6. CC(C)[C@H]1CCC(=O)C2=C1[C@H](O)[C@](C)(O)CC2

[12.5, -8.1, -0.1, -4.7, 1.6, -4.2]

Dear reader, for each entry below, please note its inhibition at 3 µM.
1. C=C(C)[C@@H]1CC[C@@]2(C)CC[C@@H](O)C(=C)C2C1 (stereo partly drawn)
2. C=C(C)[C@@H]1CC[C@@]2(C)CCC[C@@](C)(O)[C@@H]2C1
3. COc1cc(O)c2c(=O)c(O)c(-c3ccccc3)oc2c1

1: 10.3; 2: 2.5; 3: 6.3
